Target: human IRAK4 kinase domain (aa 154-460) (Homo sapiens, UniProt Q9NWZ3)
Construct: human IRAK4 kinase domain (aa 154-460; GenBank ID AF445802)
Test: IRAK4 Enzymatic DELFIA Assay
Conditions: 0.6 mM ATP (KM); 114 pM IRAK4 kinase domain; 200 nM substrate; 5% DMSO
Where a name gives a salt, the structure may show the parent alone.
MEASURE_NAME: IC50 (nM)

INSERT INTO measurements (compound, reported_measurement) VALUES
  ('CC(C)Oc1cc2c(OC3CCCNC3)cccc2cc1C(N)=O (stereo not shown) [Example 57, hydrochloride]', 40),
  ('CC(C)Oc1cc2c(O[C@@H]3CCCN(C(=O)C(C)(N)CO)C3)ccnc2cc1C(N)=O (mixture of isomers) [Example 12, formate]', 626),
  ('CC(C)Oc1cc2c(O[C@H]3CNCC[C@@H]3C)ccnc2cc1C(N)=O [Example 78]', 3040),
  ('CC(C)Oc1cc2c(O[C@@H]3CCCN(C(=O)[C@H](N)CC#N)C3)ccnc2cc1C(N)=O [Example 48, trifluoroacetate]', 299),
  ('CC(C)Oc1cc2c(O[C@@H]3[C@@H]4CC=C[C@H]3NC4=O)nccc2cc1C(N)=O', 38),
  ('COc1cc2c(O[C@@H]3CCCNC3)ccnc2cc1C(N)=O [Example 22, hydrochloride]', 428),
  ('CC(C)Oc1cc2c(O[C@@H]3CCCN(C(=O)[C@H](C)O)C3)ccnc2cc1C(N)=O', 751);

====

Molecular target: human IRAK4 kinase domain (aa 154-460) (Homo sapiens)
Construct: human IRAK4 kinase domain (aa 154-460; GenBank ID AF445802)
Sequence (Q9NWZ3 154-460): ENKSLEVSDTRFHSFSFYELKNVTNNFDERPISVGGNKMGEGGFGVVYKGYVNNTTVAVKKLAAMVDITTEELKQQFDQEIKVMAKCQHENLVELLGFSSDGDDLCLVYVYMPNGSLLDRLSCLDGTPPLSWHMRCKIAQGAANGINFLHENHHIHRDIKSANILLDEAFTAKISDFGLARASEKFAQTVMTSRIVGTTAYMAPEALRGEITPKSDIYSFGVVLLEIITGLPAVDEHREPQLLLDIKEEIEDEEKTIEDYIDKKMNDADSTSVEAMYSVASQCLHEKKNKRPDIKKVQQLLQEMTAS
Test: IRAK4 Enzymatic DELFIA Assay
Conditions: 0.6 mM ATP (KM); 114 pM IRAK4 kinase domain; 200 nM substrate; 5% DMSO
pIC50: −log10 of the molar value. Where a name gives a salt, the structure may show the parent alone.
MEASURE_NAME: pIC50

INSERT INTO results (molecule, system_tested, measure_name, reported_measurement) VALUES
  ('CC(C)Oc1cc2c(O[C@H]3CCN(C(=O)CC#N)C[C@H]3F)ccnc2cc1C(N)=O [Example 18, formate]', 'human IRAK4 kinase domain (aa 154-460) (Homo sapiens)', 'pIC50', 6.18),
  ('Cc1cc(O[C@@H]2CCCN(C(=O)CO)C2)c2cc(OC(C)C)c(C(N)=O)cc2n1 [Example 42]', 'human IRAK4 kinase domain (aa 154-460) (Homo sapiens)', 'pIC50', 6.41),
  ('CC(C)Oc1cc2c(O[C@@H]3CCCNC3)ccnc2cc1C(N)=O [Example 58, hydrochloride]', 'human IRAK4 kinase domain (aa 154-460) (Homo sapiens)', 'pIC50', 6.87),
  ('CC(C)Oc1cc2c(O[C@H]3CCN(C(=O)CC#N)C3)nccc2cc1C(N)=O [Example 1, formate]', 'human IRAK4 kinase domain (aa 154-460) (Homo sapiens)', 'pIC50', 7.28),
  ('CC(C)Oc1cc2c(O[C@@H]3CCCN(C(=O)c4c[nH]cn4)C3)ccnc2cc1C(N)=O [Example 14, formate]', 'human IRAK4 kinase domain (aa 154-460) (Homo sapiens)', 'pIC50', 6.07),
  ('CC(C)Oc1cc2c(O[C@@H]3CCNC[C@@H]3F)ccnc2cc1C(N)=O [Example 20]', 'human IRAK4 kinase domain (aa 154-460) (Homo sapiens)', 'pIC50', 6.82),
  ('CC(C)Oc1cc2c(O[C@@H]3CCCN(C(=O)CC#N)C3)nccc2cc1C(N)=O [Example 36]', 'human IRAK4 kinase domain (aa 154-460) (Homo sapiens)', 'pIC50', 8.30),
  ('CC(C)Oc1cc2c(O[C@@H]3CCNC[C@H]3F)nccc2cc1C(N)=O [Example 19]', 'human IRAK4 kinase domain (aa 154-460) (Homo sapiens)', 'pIC50', 7.41);

====

Biological target: human IRAK4 kinase domain (aa 154-460) (Homo sapiens, UniProt Q9NWZ3)
Construct: human IRAK4 kinase domain (aa 154-460; GenBank ID AF445802)
Experiment: IRAK4 Enzymatic DELFIA Assay
Details: 0.6 mM ATP (KM); 114 pM IRAK4 kinase domain; 200 nM substrate; 5% DMSO
Where a name gives a salt, the structure may show the parent alone.
MEASURE_NAME: IC50 (µM)

INSERT INTO measurements (compound, reported_measurement) VALUES
  ('CC(C)Oc1cc2c(O[C@@H]3CCCN(C(=O)C(C)C#N)C3)ccnc2cc1C(N)=O (mixture of isomers)', 0.926),
  ('Cc1cnc(O[C@@H]2CCCNC2)c2cc(OC(C)C)c(C(N)=O)cc12 [Example 56, hydrochloride]', 0.288),
  ('CC(C)Oc1cc2c(O[C@H]3CCN(C(=O)CC#N)C[C@H]3F)nccc2cc1C(N)=O [Example 3, formate]', 0.308),
  ('NC(=O)c1cc2nccc(O[C@@H]3CCCNC3)c2cc1OC(F)F', 1.39);

====

Biological target: human IRAK4 kinase domain (aa 154-460) (Homo sapiens, UniProt Q9NWZ3)
Construct: human IRAK4 kinase domain (aa 154-460; GenBank ID AF445802)
Experiment: IRAK4 Enzymatic DELFIA Assay
Details: 0.6 mM ATP (KM); 114 pM IRAK4 kinase domain; 200 nM substrate; 5% DMSO
Where a name gives a salt, the structure may show the parent alone.
Returns: string. Value is t if measured IC50 is below 900 nM, and f if it is greater than or equal to it.

INSERT INTO assay_data (molecule, category_label) VALUES
  ('CC(C)Oc1cc2c(O[C@@H]3CCCN(C(=O)CN)C3)ccnc2cc1C(N)=O [Example 6, formate]', 't'),
  ('CC(C)Oc1cc2c(OC3CCCN(C)C3)ccnc2cc1C(N)=O (centres unmarked)', 'f'),
  ('CC(C)Oc1cc2c(O[C@@H]3CCCNC3)cccc2cc1C(N)=O [Example 69, trifluoroacetate]', 't'),
  ('CC(C)Oc1cc2c(O[C@@H]3CCCN(C(=O)CC#N)C3)ncc(C#N)c2cc1C(N)=O', 't'),
  ('CC(C)Oc1cc2c(O[C@@H]3CCCN(C(=O)C4(CN)CC4)C3)ccnc2cc1C(N)=O [Example 15, formate]', 'f'),
  ('CC(C)Oc1cc2c(O[C@H]3CCN(C(=O)CC#N)C3)ccnc2cc1C(N)=O', 't'),
  ('CC(C)Oc1cc2c(O[C@@H]3C[C@@H](C)N(C(=O)CC#N)C3)ccnc2cc1C(N)=O [Example 16, formate]', 't'),
  ('CC(C)Oc1cc2c(OC3CCN(C(=O)CO)CC3)nccc2cc1C(N)=O', 't'),
  ('CC(C)Oc1cc2c(O[C@H]3CCCNC3)nccc2cc1C(N)=O', 'f'),
  ('CC(C)Oc1cc2c(O[C@H]3C[C@H]4CC[C@@H](C3)N4)nccc2cc1C(N)=O', 'f'),
  ('CC(C)Oc1cc2c(O[C@@H]3CCCN(C(=O)C(F)F)C3)ccnc2cc1C(N)=O [Example 5, formate]', 't'),
  ('N#CCC(=O)N1CCC[C@@H](Oc2ccnc3cc(C(N)=O)c(OC4CCC4)cc23)C1', 't'),
  ('CC(C)Oc1cc2c(OC3CCNC3=O)ccnc2cc1C(N)=O (centres unmarked)', 't'),
  ('CC(C)Oc1cc2c(O[C@@H]3CCNC3)ccnc2cc1C(N)=O', 'f'),
  ('NC(=O)c1cc2nccc(O[C@@H]3CCCNC3)c2cc1OC1CCC1', 't'),
  ('CC(C)Oc1cc2c(OC3CCNC3=O)nccc2cc1C(N)=O (centres unmarked)', 't');

====

Reported IC50 values for the following compounds.
Target: human IRAK4 kinase domain (aa 154-460) (Homo sapiens)
Construct: human IRAK4 kinase domain (aa 154-460; GenBank ID AF445802)
Test: IRAK4 Enzymatic DELFIA Assay
Conditions: 0.6 mM ATP (KM); 114 pM IRAK4 kinase domain; 200 nM substrate; 5% DMSO
MEASURE_NAME: IC50

INSERT INTO measurements (compound, measure_name, reported_measurement) VALUES
  ('CC(C)Oc1cc2c(O[C@H]3CNCC[C@@H]3C)ccnc2cc1C(N)=O [Example 74]', 'IC50', '2.8 µM'),
  ('CC(C)Oc1cc2c(O[C@@H]3CCCN(C(=O)CC#N)C3)ccnc2cc1C(N)=O', 'IC50', '0.004 µM'),
  ('Cc1cc(O[C@@H]2CCCN(C(=O)CC#N)C2)c2cc(OC(C)C)c(C(N)=O)cc2n1', 'IC50', '0.148 µM');
